Documented pKi across a set of compounds
- ASSAYED TARGET: human recombinant 5-HT2C receptor (Homo sapiens (Human), UniProt P28335)
- Sequence (P28335 33-458): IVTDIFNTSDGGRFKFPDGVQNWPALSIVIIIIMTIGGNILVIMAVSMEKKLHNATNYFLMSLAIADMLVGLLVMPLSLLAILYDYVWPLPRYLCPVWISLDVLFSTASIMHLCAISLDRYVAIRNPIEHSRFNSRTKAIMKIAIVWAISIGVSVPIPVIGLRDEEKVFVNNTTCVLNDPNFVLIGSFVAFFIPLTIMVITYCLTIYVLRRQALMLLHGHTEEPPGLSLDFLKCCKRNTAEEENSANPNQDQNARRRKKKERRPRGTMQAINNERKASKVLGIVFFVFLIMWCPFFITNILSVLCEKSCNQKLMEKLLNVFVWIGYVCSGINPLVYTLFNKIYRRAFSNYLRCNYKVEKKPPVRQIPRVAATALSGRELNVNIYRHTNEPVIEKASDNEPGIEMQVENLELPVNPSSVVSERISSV
- EXPERIMENT NOTES: 5-HT2C receptor binding inhibition test ([3H]-Mesulergine)
- CONDITION CONTEXT: Jump-In HEK cell membrane, 37° C. 2 hours, read-out: h-5-HT2C Ki
- Method: Test Example 2: 5-HT2C Receptor Binding Inhibition Test (Each Experimental Condition) Cell membrane: 0.5 μg of Jump-In HEK cell membrane (expressing human recombinant 5-HT2C receptor) per well […] Radioactive ligand: [^3H]-Mesulergine with a final concentration of around Kd value calculated by the following method […] The Kd value is calculated when the lot of cell membrane is changed. […] The Saturation curve is drawn from the measured value, and the Kd value is calculated from the slope of the Scatchard Plot. […]
pKi: −log10 of the molar value.
ASSAY READOUT: pKi

>>> print(df.to_string())
                                   compound                            assayed_target  experimental_result
0  CC(C)COc1ccc(CN(Cc2ccn(C3CC3)n2)C2=NOC3(CCN(C)CC3)N2)cc1 [Compound I-100]  human recombinant 5-HT2C receptor (Homo sapiens (Human), UniProt P28335)         7.00 to 8.00
1  Cc1ccc(CN(Cc2ccc(OCC(C)C)cc2)C2=NOC3(CCNCC3)N2)cn1 [Compound I-078]  human recombinant 5-HT2C receptor (Homo sapiens (Human), UniProt P28335)         6.30 to 7.00
2  CC(C)COc1ccc(CN(Cc2ccc(F)cn2)C2=NOC3(CCN(C)CC3)N2)cc1 [Compound I-007]  human recombinant 5-HT2C receptor (Homo sapiens (Human), UniProt P28335)         7.00 to 8.00
3  CN1CCC2(CC1)NC(N(Cc1ccc(OCC(F)(F)F)cc1)Cc1coc(C3CC3)n1)=NO2 [Compound I-086]  human recombinant 5-HT2C receptor (Homo sapiens (Human), UniProt P28335)               > 8.00
4  CC(C)COc1ccc(CCC2=NOC3(CCN(C)CC3)N2Cc2ccc(F)cc2)cc1 [Compound I-008]  human recombinant 5-HT2C receptor (Homo sapiens (Human), UniProt P28335)         6.30 to 7.00
5  Cc1nc(CN(Cc2ccc(OCC(C)C)cc2)C2=NC3(CCNCC3)ON2C)co1 [Compound I-051]  human recombinant 5-HT2C receptor (Homo sapiens (Human), UniProt P28335)         6.30 to 7.00
6  CN1CCC2(CC1)NC(N(Cc1cnn(C)n1)Cc1ccc(OCC(F)(F)C(F)(F)F)cc1F)=NO2 [Compound I-103]  human recombinant 5-HT2C receptor (Homo sapiens (Human), UniProt P28335)               > 8.00
7  CCCCOc1ccc(CN(Cc2cnn(C)n2)C2=NOC3(CCN(C)CC3)N2)c(F)c1 [Compound I-112]  human recombinant 5-HT2C receptor (Homo sapiens (Human), UniProt P28335)               > 8.00
